System: Escherichia coli
method: Antibacterial activity against Escherichia coli Vogel assessed as growth inhibition
Type: functional
Reported MIC by item:
Reply with just the number (in µg/mL).

Nc1nc(N)c2cc([S+]([O-])c3ccc(Br)cc3)ccc2n1 (stereo unspecified)
2.5

Q: Give MIC for Nc1nc(N)c2cc([S+]([O-])c3ccccc3)ccc2n1 (stereo unspecified)
Ans: 1.5

Q: Give MIC for COc1cccc(S(=O)(=O)c2ccc3nc(N)nc(N)c3c2)c1
Ans: 2.5

Q: Give MIC for Nc1nc(N)c2cc(S(=O)(=O)c3ccc(Br)cc3)ccc2n1
Ans: 2.5

Q: Give MIC for Nc1nc(N)c2c(Cl)c(S(=O)(=O)c3ccc(F)cc3)ccc2n1
Ans: 10

----------
Test system: Escherichia coli
method: Antibacterial activity against Escherichia coli Vogel assessed as growth inhibition
Format: functional
observation-type: MIC

Observe how each entry below is paired with its result.
Nc1nc(N)c2cc([S+]([O-])c3ccc(Cl)c(Cl)c3)ccc2n1 (stereo not drawn)
> 25 µg/mL
Cc1c([S+]([O-])c2ccc3ccccc3c2)ccc2nc(N)nc(N)c12 (stereo not drawn)
> 25 µg/mL
Nc1nc(N)c2c(Cl)c(S(=O)(=O)c3ccccc3)ccc2n1
2 µg/mL

Q: Give MIC for Nc1nc(N)c2c(Cl)c(S(=O)(=O)c3ccc4ccccc4c3)ccc2n1
Ans: > 25 µg/mL

----------
Reported MIC by item:
Test system: Staphylococcus aureus
method: Antibacterial activity against Staphylococcus aureus UC-76 assessed as growth inhibition
Format: functional
Reply with just the number (in µg/mL).

Observe how each entry below is paired with its result.
Nc1nc(N)c2cc([S+]([O-])c3c(F)c(F)cc(F)c3F)ccc2n1 (configuration not stated)
1
COc1cccc(S(=O)(=O)c2ccc3nc(N)nc(N)c3c2)c1
1

Q: Give MIC for COc1ccc(S(=O)(=O)c2ccc3nc(N)nc(N)c3c2)cc1
Ans: 2.5

----------
Test system: Plasmodium berghei
method: Antimalarial activity against trophozoite-induced Plasmodium berghei infected in mouse assessed as change in mean survival time at 5 mg/kg, sc single dose after 72 hrs of infection
Type: functional
experimental-conditions: route subcutaneous
Decide by MST: equal to or exceeding 9 days means Condition met, less means Condition not met.

Solved entries (count: 5):
Nc1nc(N)c2cc(S(=O)(=O)c3cc(Cl)cc(Cl)c3)ccc2n1
Condition not met
Nc1nc(N)c2cc([S+]([O-])c3cccc(-c4ccccc4)c3)ccc2n1 (stereo unspecified)
Condition not met
Nc1nc(N)c2c(Cl)c(S(=O)(=O)c3ccc(F)cc3)ccc2n1
Condition not met
Nc1nc(N)c2cc(S(=O)(=O)c3ccc(Br)cc3)ccc2n1
Condition met
Nc1nc(N)c2cc(S(=O)(=O)c3ccccc3)ccc2n1
Condition not met

Q: Check this molecule for MST at or above 9 days: Nc1nc(N)c2cc(S(=O)(=O)c3ccc(F)cc3)ccc2n1
Ans: Condition met

Q: Check this molecule for MST at or above 9 days: Cc1c([S+]([O-])c2ccc3ccccc3c2)ccc2nc(N)nc(N)c12 (stereo unspecified)
Ans: Condition met

Q: Check this molecule for MST at or above 9 days: Nc1nc(N)c2cc([S+]([O-])c3ccc(Br)cc3)ccc2n1 (stereo unspecified)
Ans: Condition not met

Q: Check this molecule for MST at or above 9 days: Nc1nc(N)c2cc(S(=O)(=O)c3cccc(C(F)(F)F)c3)ccc2n1
Ans: Condition not met

Q: Check this molecule for MST at or above 9 days: Nc1nc(N)c2cc([S+]([O-])c3ccc4ccccc4c3)ccc2n1 (stereo unspecified)
Ans: Condition met

----------
Tested on: Plasmodium gallinaceum
method: Antimalarial activity against cycloguanil-resistant Plasmodium gallinaceum infected in mouse assessed as dose required to suppress parasitemia by 90% compound treated through gavage for 3 days relative to parent strain
Type: functional
Reported fold change (FC) by item:
Give only the figure.

Observe how each entry below is paired with its result.
CN(C)c1ccc(Sc2ccc3nc(N)nc(N)c3c2)cc1
0
Nc1nc(N)c2cc(S(=O)(=O)c3ccc(F)cc3)ccc2n1
3
Nc1nc(N)c2cc(Sc3ccc4ccccc4c3)ccc2n1
0

Q: Give fold change (FC) for Nc1nc(N)c2cc(S(=O)(=O)c3ccc4ccccc4c3)ccc2n1
Ans: 0

Q: Give fold change (FC) for Nc1nc(N)c2cc(Sc3ccc(Cl)c(Cl)c3)ccc2n1
Ans: 0

Q: Give fold change (FC) for Nc1nc(N)c2cc([S+]([O-])c3ccc4ccccc4c3)ccc2n1 (stereo not drawn)
Ans: 0

----------
Tested on: Plasmodium gallinaceum
method: Antimalarial activity against sporozoite-induced Plasmodium gallinaceum infected in chick assessed as change in cured at 15 mg/kg, sc single dose
Type: functional
experimental-conditions: route subcutaneous
observation-type: MST (days)
Reply with just the number (in days).

Observe how each entry below is paired with its result.
CC1(C)N=C(N)N=C(N)N1c1ccc(Cl)cc1.Cl [CHLORCYCLOGUANIL HYDROCHLORIDE]
0
Nc1nc(N)c2cc([S+]([O-])c3ccccc3)ccc2n1 (stereo not drawn)
0
Nc1nc(N)c2cc(S(=O)(=O)c3cc(Cl)cc(Cl)c3)ccc2n1
2.2
Cc1c([S+]([O-])c2ccc3ccccc3c2)ccc2nc(N)nc(N)c12 (stereo not drawn)
3.7
Nc1nc(N)c2cc([S+]([O-])c3ccccc3-c3ccccc3)ccc2n1 (stereo not drawn)
0
Nc1nc(N)c2cc([S+]([O-])c3ccc(F)cc3)ccc2n1 (stereo not drawn)
1
COc1cccc(S(=O)(=O)c2ccc3nc(N)nc(N)c3c2)c1
0

Lab note: next molecule to report on.
Q: Give MST for Nc1nc(N)c2cc(S(=O)(=O)c3cccc(-c4ccccc4)c3)ccc2n1
Ans: 0

----------
Reported MIC by item:
Test system: Enterococcus faecalis
method: Antibacterial activity against Streptococcus faecalis MGH-2 assessed as growth inhibition
Type: functional

Observe how each entry below is paired with its result.
Nc1nc(N)c2cc(S(=O)(=O)c3ccc(Br)cc3)ccc2n1
< 0.25 µg/mL
Nc1nc(N)c2cc([S+]([O-])c3ccc(Br)cc3)ccc2n1 (stereo not drawn)
< 0.25 µg/mL

Q: Find MIC for COc1ccc(S(=O)(=O)c2ccc3nc(N)nc(N)c3c2)cc1 on Enterococcus faecalis and write it down.
Ans: < 0.25 µg/mL

----------
System: Enterococcus faecalis
method: Antibacterial activity against Streptococcus faecalis MGH-2 assessed as growth inhibition
Type: functional
Reported MIC by item:

Q: Give MIC for Nc1nc(N)c2cc(S(=O)(=O)c3ccccc3-c3ccccc3)ccc2n1
Ans: 0.25 µg/mL

Q: Give MIC for Nc1nc(N)c2c(Cl)c(S(=O)(=O)c3cccc(C(F)(F)F)c3)ccc2n1
Ans: < 0.25 µg/mL

Q: Give MIC for Nc1nc(N)c2c(Cl)c(S(=O)(=O)c3ccc4ccccc4c3)ccc2n1
Ans: < 0.25 µg/mL

Q: Give MIC for Nc1nc(N)c2cc(S(=O)(=O)c3cccc(C(F)(F)F)c3)ccc2n1
Ans: 0.25 µg/mL

Q: Give MIC for Nc1nc(N)c2cc([S+]([O-])c3ccccc3)ccc2n1 (stereo not given)
Ans: < 0.25 µg/mL

----------
System: Staphylococcus aureus
method: Antibacterial activity against Staphylococcus aureus UC-76 assessed as growth inhibition
Assay type: functional
# note: exactly 2 µg/mL is not below, so it is F; use T for MIC strictly under it

Solved entries (count: 2):
Nc1nc(N)c2cc(S(=O)(=O)c3cc(Cl)cc(Cl)c3)ccc2n1
F
Nc1nc(N)c2cc(S(=O)(=O)c3ccc(Cl)c(Cl)c3)ccc2n1
T

Q: Given the entry Nc1nc(N)c2c(Cl)c([S+]([O-])c3ccc(F)cc3)ccc2n1 (configuration not stated) , would its reported MIC be below 2 µg/mL?
Ans: T

Q: Given the entry Cc1c([S+]([O-])c2ccc3ccccc3c2)ccc2nc(N)nc(N)c12 (configuration not stated) , would its reported MIC be below 2 µg/mL?
Ans: F

Q: Given the entry Nc1nc(N)c2cc(S(=O)(=O)c3ccc(Br)cc3)ccc2n1 , would its reported MIC be below 2 µg/mL?
Ans: T

Q: Given the entry Nc1nc(N)c2cc(S(=O)(=O)c3cccc4ccccc34)ccc2n1 , would its reported MIC be below 2 µg/mL?
Ans: F

Q: Given the entry Nc1nc(N)c2cc(S(=O)(=O)c3cccc(C(F)(F)F)c3)ccc2n1 , would its reported MIC be below 2 µg/mL?
Ans: T

Q: Given the entry Nc1nc(N)c2cc([S+]([O-])c3cccc4ccccc34)ccc2n1 (configuration not stated) , would its reported MIC be below 2 µg/mL?
Ans: F

Q: Given the entry Nc1nc(N)c2cc([S+]([O-])c3ccccc3-c3ccccc3)ccc2n1 (configuration not stated) , would its reported MIC be below 2 µg/mL?
Ans: F

----------
Test system: Plasmodium berghei
method: Antimalarial activity against trophozoite-induced Plasmodium berghei infected in mouse assessed as change in mean survival time at 10 mg/kg, sc single dose after 72 hrs of infection
Format: functional
experimental-conditions: route subcutaneous
Reported MST by item:
Reply with just the number (in days).

Observe how each entry below is paired with its result.
Nc1nc(N)c2cc([S+]([O-])c3cccc4ccccc34)ccc2n1 (stereo unspecified)
1.1
Nc1nc(N)c2cc([S+]([O-])c3ccc(Cl)c(Cl)c3)ccc2n1 (stereo unspecified)
8.7
Nc1nc(N)c2cc(S(=O)(=O)c3cccc4ccccc34)ccc2n1
0.7
Nc1nc(N)c2cc([S+]([O-])c3cccc(-c4ccccc4)c3)ccc2n1 (stereo unspecified)
6.7
COc1ccc(S(=O)(=O)c2ccc3nc(N)nc(N)c3c2)cc1
4.9

Q: Find MST for Nc1nc(N)c2cc([S+]([O-])c3c(F)c(F)cc(F)c3F)ccc2n1 (stereo unspecified) on Plasmodium berghei and write it down.
Ans: 0.5

Q: Find MST for Nc1nc(N)c2cc(S(=O)(=O)c3cccc(-c4ccccc4)c3)ccc2n1 on Plasmodium berghei and write it down.
Ans: 13.9

Q: Find MST for Cc1cc(S(=O)(=O)c2ccc3nc(N)nc(N)c3c2)ccc1Br on Plasmodium berghei and write it down.
Ans: 0.5
